test system: Hodgkin lymphoma cell lines; assay: Proliferation and IC50 determination (MTS assay; manual counting using Trypan blue); assay type: cell-based; conditions: Homo sapiens, 48 h, range over all cell lines
metricName: IC50

Field request: IC50 | item: Cn1c(CCCCCCC(=O)NO)nc2cc(N(CCCl)CCCl)ccc21 [EDO-S101] 1.6 to 6.3 µM
